- Test system: Wild type
- assay.overview: S. aureus survival, RN4220 and DeltatarO strains – OD600, teichoic acid synthesis inhibitors, primary screen (AID 463173)
- condition.info: S. aureus RN4220 wild type/DeltatarO growth, OD600, 18 h, active compounds read low, screened at 18.75 µg/mL (by protocol)
Out of some 52,000 compounds screened, about 1,700 (3.3%) were called active. The full list was thinned out, with actives kept by preference.
property.label: survival

Query: Requested field: survival. Item: CN(Cc1ccccc1)C(=O)c1cc(-c2cccc(Cl)c2)on1
Response: -15% (active)

Query: Requested field: survival. Item: Cc1ccc(Cl)cc1N1CCN(C(=O)c2sc3nc4n(c(=O)c3c2C)CCC4)CC1
Response: 75% (inactive)

Query: Requested field: survival. Item: COC(=O)c1c(-c2cccs2)csc1NC(=O)c1cc(OC)c(OC)c(OC)c1
Response: 76% (inactive)

Query: Requested field: survival. Item: CCOc1ccc(-n2c(=O)c3c(C)c(C(=O)N(C)C)sc3n(CC(=O)Nc3c(C)cc(C)cc3C)c2=O)cc1
Response: 68% (inactive)

Query: Requested field: survival. Item: Cc1ccc(-n2c(=O)c3c(C)c(C(=O)N(C)C)sc3n(Cc3ccccc3C)c2=O)cc1C
Response: 73% (inactive)

Query: Requested field: survival. Item: CCn1c(N2CCN(C(=O)Nc3ccc(Cl)c(C(F)(F)F)c3)CC2)nc2ccccc21
Response: 0% (active)

Query: Requested field: survival. Item: CCOC(=O)c1ccccc1NC(=O)Cn1c(=O)n(-c2ccc(CC)cc2)c(=O)c2c(C)c(C(=O)N(C)C)sc21
Response: -2% (active)

Query: Requested field: survival. Item: CC1CCN(C(=O)c2cc(-c3ccc(Cl)cc3)on2)CC1
Response: 85% (inactive)

Query: Requested field: survival. Item: COc1ccc(C(=O)c2oc3ccccc3c2NC(=O)c2cc(=O)c3ccc(C)cc3o2)cc1Cl
Response: 87% (inactive)

Query: Requested field: survival. Item: O=C(c1cc(-c2ccccc2)on1)N1CCCCC1
Response: 113% (inactive)

Query: Requested field: survival. Item: COc1cccc(-n2c(=O)c3c(C)c(C(=O)N(C)C)sc3n(Cc3ccc(F)cc3Cl)c2=O)c1
Response: 83% (inactive)

Query: Requested field: survival. Item: CCCn1c(N2CCN(C(=O)Nc3ccc(OC)cc3)CC2)nc2ccccc21
Response: 94% (inactive)

Query: Requested field: survival. Item: COC(=O)c1cccnc1-n1c(=O)c2cccnc2n(CC(=O)Nc2ccccc2F)c1=O
Response: 84% (inactive)

Query: Requested field: survival. Item: O=C(c1cc(-c2cccc(Cl)c2)on1)N1CCN(c2ccccc2)CC1
Response: 4% (active)

Query: Requested field: survival. Item: O=C(NCCc1ccccc1)c1cc(-c2cccc(Cl)c2)on1
Response: 87% (inactive)

Query: Requested field: survival. Item: COc1cccc(NC(=O)c2ccc(CN3CCN(c4ccccc4)CC3)cc2)c1
Response: 122% (inactive)

Query: Requested field: survival. Item: COC(=O)c1ccccc1NC(=O)Cn1c(=O)n(-c2cccc(OC)c2)c(=O)c2c(C)c(C(=O)N(C)C)sc21
Response: 121% (inactive)

Query: Requested field: survival. Item: CC(C)Cn1c(N2CCN(C(=O)Nc3ccc(Cl)cc3)CC2)nc2ccccc21
Response: 99% (inactive)

Query: Requested field: survival. Item: CCc1ccc(-n2c(=O)c3c(C)c(C(=O)N(C)C)sc3n(CC(=O)Nc3cc(Cl)ccc3C)c2=O)cc1
Response: 129% (inactive)

Query: Requested field: survival. Item: N#Cc1c(/N=C/c2ccc3c(c2)OCO3)oc(-c2ccccc2)c1-c1ccccc1
Response: 115% (inactive)

----------
- Tested on: Wild type
- assay.overview: S. aureus survival, RN4220 and DeltatarO strains – OD600, teichoic acid synthesis inhibitors, primary screen (AID 463173)
- condition.info: S. aureus RN4220 wild type/DeltatarO growth, OD600, 18 h, screened at 18.75 µg/mL (by protocol)
Screen size: about 52,000 compounds; about 1,700 (3.3%) were called active. No stated cut-off is given here; in the data, active means survival mostly below about 52% (no sharp cut-off); inactive means mostly above about 56%. Shown is part of a subset that was picked to be rich in actives.
Classes to choose from: T for active, F for inactive

Query: Called result for O=C(CN(C1CCCCC1)S(=O)(=O)c1ccccc1)N1CCCCC1
Response: F

Query: Called result for CCc1ccccc1NC(=O)c1cc2sc(Cl)cc2n1CC
Response: F

Query: Called result for CCOc1ccccc1NC(=O)C(CC)n1c(C(=O)OC)cc2occc21 (stereo unspecified)
Response: T

Query: Called result for CC1(C)OC(c2ccccc2)CC1=O (stereo unspecified)
Response: F

Query: Called result for CCOC(=O)c1cc2occc2n1C(C)C(=O)OCC (stereo unspecified)
Response: F

Query: Called result for CCn1c(C(=O)Nc2ccccc2C(=O)OC)cc2sc(Cl)cc21
Response: F

Query: Called result for COc1ccc(-n2c(=O)c3ccccc3n(CC(=O)Nc3ccccc3OC)c2=O)cc1
Response: F

Query: Called result for CC(C)=CCc1c(O)cc(O)c2c1OC(c1ccccc1)CC2=O (stereo unspecified)
Response: T

Query: Called result for CCOc1cccc(C(=O)Nc2cc(C)c(O)c(-c3nc4ncccc4o3)c2)c1
Response: F

Query: Called result for COc1cccc(-n2c(SCC(=O)c3ccc(Cl)cc3)nc3c([nH]c4ccccc43)c2=O)c1
Response: F

Query: Called result for CCc1ccc(C(=O)NC2=NC(c3ccccc3F)CC(=O)N2)cc1 (stereo unspecified)
Response: F

----------
- Tested on: Wild type
- assay.overview: S. aureus survival, RN4220 and DeltatarO strains – OD600, teichoic acid synthesis inhibitors, primary screen (AID 463173)
- condition.info: S. aureus RN4220 wild type/DeltatarO growth, OD600, 18 h, screened at 18.75 µg/mL (by protocol)
Out of some 52,000 compounds screened, about 1,700 (3.3%) were called active. Cut-off read from the data, not from the text of the source: active = survival mostly below about 52% (no sharp cut-off); inactive = mostly above about 56%. The sample as a whole holds a higher share of actives than the screen did.
Classes to choose from: active, inactive

Query: Called result for COc1ccc(Cl)cc1NC(=O)C1CCN(c2ncnc3c2nc2n3CCCCC2)CC1
Response: inactive

Query: Called result for CCOc1ccc(-c2cn3c(n2)sc2cc(C(=O)NCCCN4CCCCCC4)ccc23)cc1
Response: active

Query: Called result for CCN1CCN(CCCNC(=O)c2ccc3c(c2)sc2nc(-c4ccc(OC)cc4)cn23)CC1
Response: inactive

Query: Called result for CCOc1ccc(-c2nnc(SCC(=O)c3ccc(F)cc3)n2-c2ccccc2)cc1
Response: inactive

Query: Called result for CCc1ccccc1NC(=O)c1cc(S(=O)(=O)N2CCC(C)CC2)cn1C
Response: inactive

Query: Called result for O=C(NCCCN1CCCCCC1)c1ccc2c(c1)sc1nc(-c3ccccc3)cn12
Response: inactive

Query: Called result for O=C(CSc1nnc(-c2ccc(Br)cc2)n1-c1ccccc1)c1ccccc1
Response: inactive

Query: Called result for Cc1ccc(C(=O)CSc2nnc(-c3ccccc3)n2-c2ccccc2)cc1
Response: inactive

Query: Called result for COc1ccccc1-c1nnc(SCC(=O)c2ccc(F)cc2)n1-c1ccccc1
Response: active

Query: Called result for COc1ccccc1-c1nnc(SCC(=O)OC(C)C)n1-c1ccccc1
Response: inactive

----------
- System: Wild type
- assay.overview: S. aureus survival, RN4220 and DeltatarO strains – OD600, teichoic acid synthesis inhibitors, primary screen (AID 463173)
- condition.info: S. aureus RN4220 wild type/DeltatarO growth, OD600, 18 h, active compounds read low, screened at 18.75 µg/mL (by protocol)
Out of some 52,000 compounds screened, about 1,700 (3.3%) were called active. The sample as a whole holds a higher share of actives than the screen did.
property.label: survival (%)
Just the number in %, nothing appended.

Query: What measured survival is associated with COC(=O)C(C)n1nnc2sc(-c3ccccc3)cc2c1=O (stereo unspecified) on Wild type?
Response: 88

Query: What measured survival is associated with COc1cc(Cl)c(NC(=O)CN2C(=O)c3cccnc3Sc3ccccc32)c(OC)c1 on Wild type?
Response: 72

Query: What measured survival is associated with CCOc1ccc(-c2c(C)nn3c(C)c(C(=O)Nc4cccc(Cl)c4C)cnc23)cc1OCC on Wild type?
Response: 67

Query: What measured survival is associated with CC(C)C(NS(=O)(=O)c1cccc2cccnc12)C(=O)Nc1ccc(OC(F)(F)F)cc1 (stereo unspecified) on Wild type?
Response: 100

Query: What measured survival is associated with O=c1[nH]c2ccc(NCc3ccc(-c4ccc(Cl)cc4)o3)cc2[nH]1 on Wild type?
Response: 111

Query: What measured survival is associated with COc1cc(CNC(=O)c2cnc3c(-c4cccc(C)c4)c(C)nn3c2C)cc(OC)c1OC on Wild type?
Response: 74

Query: What measured survival is associated with NC(=Nc1ccccc1)SC1CC(=O)N(c2ccccc2)C1=O (stereo unspecified) on Wild type?
Response: 113

Query: What measured survival is associated with CCOc1ccc(OCC)c(NC(=O)c2cnc3c(-c4ccccc4)c(C)nn3c2C)c1 on Wild type?
Response: 63

Query: What measured survival is associated with CCCNC(=O)c1cnc2c(-c3ccc(OCC)c(OCC)c3)c(C)nn2c1-c1ccccc1 on Wild type?
Response: 76

Query: What measured survival is associated with COc1ccc(CNCCSc2nnnn2-c2ccccc2)cc1 on Wild type?
Response: 83

Query: What measured survival is associated with COc1ccc(OC)c(C2NC(=O)NC(C)=C2C(=O)Nc2ccc(F)cc2)c1 (stereo unspecified) on Wild type?
Response: 81

Query: What measured survival is associated with COc1cc(Cl)c(C)cc1NC(=O)c1cnc2c(-c3cccc(C)c3)c(C)nn2c1C on Wild type?
Response: 14

Query: What measured survival is associated with Cc1ccc(O)c(C(CC(=O)NCC2(c3ccccc3)CCCC2)c2ccccc2)c1 (stereo unspecified) on Wild type?
Response: 6

Query: What measured survival is associated with COc1cccc(NS(=O)(=O)c2ccc3c(c2)N(C)C(=O)CC(=O)N3C)c1 on Wild type?
Response: 78

Query: What measured survival is associated with Cc1nn2c(C)c(C(=O)NCc3cccc(Br)c3)cnc2c1-c1ccccc1 on Wild type?
Response: 53

Query: What measured survival is associated with Cc1ccccc1NC(=O)C(=O)NCC1(c2ccccc2)CCCC1 on Wild type?
Response: 94

Query: What measured survival is associated with Cc1cccc(C(CC(=O)NCC2(c3ccccc3)CCCC2)c2ccccc2)c1O (stereo unspecified) on Wild type?
Response: 2

Query: What measured survival is associated with COCCCNC(=O)CCCCn1c(=O)c2ccccc2n(CC(=O)Nc2ccc(C)cc2C)c1=O on Wild type?
Response: 82

Query: What measured survival is associated with O=C(CC(c1ccccc1)c1cc(Br)ccc1O)NCC1(c2ccccc2)CCCC1 (stereo unspecified) on Wild type?
Response: 63

Query: What measured survival is associated with O=C(NCCC1=CCCCC1)c1ccc2c(=O)n3nc(Nc4ccccc4)sc3nc2c1 on Wild type?
Response: 72

Query: What measured survival is associated with O=C(NCC1COc2ccccc2O1)c1cn(Cc2ccc(F)cc2)nn1 (stereo unspecified) on Wild type?
Response: 107
